# System: P12-Ichikawa
# Measurement notes: cell viability relative to DMSO control; higher = less cytotoxic
# Assay setup: HPLM + 10% dialyzed FBS; 48 h; 0.000781 µM
Assay metric: cell viability (%)
// return numeric value only (unit: %, not printed)

Measured cell viability for this entry "Cc1cccc(/C=N/Nc2cc(N3CCOCC3)nc(OCCc3ccccn3)n2)c1" on P12-Ichikawa: 95.8

Measured cell viability for this entry CC(C)Cc1ccc(C(C)C(=O)O)cc1 (stereo not drawn) on P12-Ichikawa: 86.1

Measured cell viability for this entry CN(C)C1=C(Br)C=C(C=C1)C\2NC3=C(\C4=C2C(=O)CC(C)(C)C4)C5=CC=CC=C5C=C3 (stereo not drawn) on P12-Ichikawa: 116

Measured cell viability for this entry "OCc1ccc(-c2ccc(-c3ccc(CO)s3)o2)s1" on P12-Ichikawa: 116

Measured cell viability for this entry "C[C@]12CC[C@H]3[C@@H](CCC/4=C/C(=O)CC[C@]34C)[C@@H]1CC[C@@H]2OC(=O)CCC5CCCC5" on P12-Ichikawa: 93.1

Measured cell viability for this entry "C[C@](N)(Cc1ccc(O)c(O)c1)C(=O)O" on P12-Ichikawa: 95.1

Measured cell viability for this entry "CNC(=O)[C@H](CC/1=C/N=C\2/C=C\C\C=C12)NC(=O)[C@H](CC(C)C)CC(=O)NO" on P12-Ichikawa: 116

Please turn your attention to the following entry.
Measured cell viability for this entry "O=C(Nc1cccnn1)N1CCC(=Cc2cccc(Oc3ccc(C(F)(F)F)cn3)c2)CC1" on P12-Ichikawa: 92.9

----------
Recorded cell viability for the following compounds
# Tested on: P12-Ichikawa
# Measurement notes: cell viability relative to DMSO control; higher = less cytotoxic
# Assay setup: RPMI 5 mM glucose + 10% dialyzed FBS; 48 h; 0.569 µM
// return numeric value only (unit: %, not printed)

Measured cell viability for this entry COc1cccc2c1CCCC2CCCN1CCN(C2CCCCC2)CC1 (centres undefined) on P12-Ichikawa: 111

More entries:
Measured cell viability for this entry "CC(C)(O)/C=C\C(=O)[C@](C)(O)[C@H]1[C@H](O)C[C@]2(C)[C@@H]3CC=C4[C@@H](C=C(O)C(=O)C4(C)C)[C@]3(C)C(=O)C[C@@]12C" on P12-Ichikawa: 14.6

Measured cell viability for this entry "CC/1=C(\O)C(=O)\C=C2/C1=C/C=C3\[C@@]2(C)CC[C@@]4(C)[C@@H]5C[C@@](C)(CC[C@]5(C)CC[C@]34C)C(O)=O" on P12-Ichikawa: 97.9

Measured cell viability for this entry "O.O.CCN1CCN(C(=O)N[C@H](C(=O)N[C@H]2[C@@H]3SC\C(=C(/N3C2=O)C(O)=O)CSC4=NN=N[N]4C)C5=CC=C(O)C=C5)C(=O)C1=O" on P12-Ichikawa: 93.3

----------
# Tested on: P12-Ichikawa
# Measurement notes: cell viability relative to DMSO control; higher = less cytotoxic
# Assay setup: HPLM + 10% dialyzed FBS; 48 h; 0.19 µM
Recorded cell viability for the following compounds
// return numeric value only (unit: %, not printed)

The reported cell viability of the compound "OC[C@H]1O[C@@H](Oc2cc(O)cc(/C=C/c3ccc(O)cc3)c2)[C@H](O)[C@@H](O)[C@@H]1O" was 107

The reported cell viability of the compound "CCOC(=O)\C1=C\[C@@H](OC(CC)CC)[C@H](NC(C)=O)[C@@H](N)C1" was 103

The reported cell viability of the compound "C[C@]12CC[C@H]3[C@@H](CCC/4=C/C(=O)CC[C@]34C)[C@@H]1CC[C@@H]2OC(=O)CCC5CCCC5" was 101

The reported cell viability of the compound CC(C)Cc1ccc(C(C)C(=O)O)cc1 (stereo not given) was 98.2

The reported cell viability of the compound CCN1CCCC1CNC(=O)c1cc([S+](N)(=O)[O-])ccc1OC (stereo not given) was 121

More entries:
The reported cell viability of the compound "Cc1nc(Nc2n[nH]c3c2CN(C(=O)N[C@H](CN(C)C)c2ccccc2)C3(C)C)c2sccc2n1" was 73.5

The reported cell viability of the compound O=c1[nH]c(=O)n(C2CCCO2)cc1F (stereo not given) was 124

The reported cell viability of the compound "CCN1CCN(C(=O)Cc2ccc(Nc3ncc(F)c(Nc4ccc(C(=O)Nc5ccccc5Cl)cc4)n3)cc2)CC1" was 118

The reported cell viability of the compound "CC[C@]1(O)C[C@@H]2CN(CCc3c([nH]c4ccccc34)[C@@](C(=O)OC)(c3cc4c(cc3OC)N(C)[C@H]3[C@@](O)(C(N)=O)[C@H](O)[C@]5(CC)C=CCN6CC[C@]43[C@@H]65)C2)C1" was 18.3

Hello, the source for this data is the supplement of paper PMC11451515, in case you need it.
